biological target: Phosphoglycerate kinase, glycosomal (Trypanosoma brucei brucei); assay: qHTS Validation Assay to Find Inhibitors of Phosphoglycerate Kinase (AID 504547); conditions: enzymatic PGK inhibition, coupled luminescence read-out; series mostly up to 57.5 µM
Calls of active or inactive are those of the source. Calls come from the whole dose curve; as a rule, active = well fitted inhibition curve with a large enough effect; inconclusive = small, poorly fitted or top-dose-only effect; inactive = flat fitted curve, though single readings scatter.
Allowed answers: Y (active), N (inactive)

Worked cases, answers included:
{"columns": ["Compound", "Label class"],
 "data": [
  ["CCCN(CCC)CCc1ccc(O)c(O)c1", "N"],
  ["OCc1cnc[nH]1", "N"],
  ["COc1ccc2c(c1)c(CCN1CCOCC1)c(C)n2C(=O)c1cccc(Cl)c1Cl", "N"],
  ["C=CCN1CC[C@]23c4c5ccc(O)c4O[C@H]2/C(=N/NC(=O)c2ccccc2)CC[C@@]3(O)[C@H]1C5", "N"],
  ["C[C@H](N)CN1CCc2ccc(Br)cc21", "N"],
  ["Clc1ccc(N2CC3CCC(C2)N3)nn1", "N"],
  ["NCCc1c[nH]c2ccc(C(N)=O)cc12", "N"],
  ["C[N+](C)(C)CC#CCOC(=O)Nc1cccc(Cl)c1", "N"]
]}

Which result was noted for this compound in the test: `Cc1sc2ccccc2c1CC1=NCCN1`
N

Which result was noted for this compound in the test: C[C@@H]1O[C@@H](O[C@H]2C[C@@H](O)[C@]3(CO)[C@@H]4C(CC[C@]3(O)C2)[C@@]2(O)CC[C@H]([C@@H]3COC(=O)C3)[C@@]2(C)C[C@H]4O)[C@H](O)[C@H](O)[C@H]1O (some centres not stated)
N

Which result was noted for this compound in the test: CN1C2CCC1CC(OC(c1ccccc1)c1ccccc1N)C2 (configuration not stated)
N

Which result was noted for this compound in the test: `CCN(CCCl)Cc1ccccc1Br`
N

Which result was noted for this compound in the test: CC(N)[C@H](O)c1ccc(O)c(O)c1 (some centres not stated)
Y

Which result was noted for this compound in the test: CN1CC[C@@]2(C)c3cc(O)ccc3N(C)C12 (some centres not stated)
N

Which result was noted for this compound in the test: `C[N+](C)(C)CCOC(=O)CBr`
N

----------
assay: qHTS for differential inhibitors of proliferation of Plasmodium falciparum line HB3 (AID 1886); conditions: Plasmodium falciparum HB3 proliferation inhibition; series mostly up to 28.7 µM;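 note: parasites grown with compound for 72 h before SYBR Green readout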
Records with an inconclusive call do not appear. Activity calls are given as the source filed them. Calls come from the whole dose curve; as a rule, active = well fitted curve in the direction sought with a large enough effect; inconclusive = small, poorly fitted or top-dose-only effect, or another doubt; inactive = no such curve, though single readings can be large or run the other way.
Allowed answers: yes (active), no (inactive)

Worked cases, answers included:
{"columns": ["Compound", "Label class"],
 "data": [
  ["Nc1ccc(CCN2CCN(c3cccc(C(F)(F)F)c3)CC2)cc1", "no"],
  ["CN1C2CCC1CC(OC(c1ccccc1)c1ccccc1N)C2 (centres undefined)", "yes"],
  ["CO[C@H]1CC=C2CCN3CCC4=C(CC(=O)OC4)[C@]23C1", "no"],
  ["O=[N+]([O-])c1ccc2nc(N3CCNCC3)ccc2c1", "yes"],
  ["OCc1cnc[nH]1", "yes"]
]}

Which result was noted for this compound in the test: NCC(O)c1cc(O)c(O)cc1F (centres undefined)
no

Which result was noted for this compound in the test: NC(Cc1ccc(N(CCCl)CCCl)cc1)C(=O)O (centres undefined)
yes

Which result was noted for this compound in the test: CC(C)CC(NP(=O)(O)O[C@@H]1O[C@@H](C)[C@H](O)[C@@H](O)[C@H]1O)C(=O)NC(Cc1c[nH]c2ccccc12)C(=O)O (some centres undefined)
no

Which result was noted for this compound in the test: CCCCCCCCCCCCCC(=O)O[C@@H]1[C@@H](C)[C@@]2(O)[C@@H](C=C(CO)C[C@@]3(O)C(=O)C(C)=C[C@@H]23)C2C(C)(C)[C@@]21OC(C)=O (some centres undefined)
yes

Which result was noted for this compound in the test: `C[C@@H]1O[C@H](C[N+](C)(C)C)CS1`
no

Which result was noted for this compound in the test: `CCCN(CCC)C1Cc2cc(OC)c(OC)cc2C1`
no

Which result was noted for this compound in the test: `NNC(=O)c1ccc(O)cc1`
no

Which result was noted for this compound in the test: `NC(=O)c1cc(N2CC2)c([N+](=O)[O-])cc1[N+](=O)[O-]`
no

Which result was noted for this compound in the test: `NC(N)=Nc1ccc2[nH]c3c(c2c1)C[C@@]1(O)[C@H]2Cc4ccc(O)c5c4[C@@]1(CCN2CC1CC1)[C@H]3O5`
no

Which result was noted for this compound in the test: `C#CCN[C@H](C)Cc1ccccc1`
no

Which result was noted for this compound in the test: `c1ccc2cc(CC3=NCCN3)ccc2c1`
no

Which result was noted for this compound in the test: `NCCc1ccc(S(=O)(=O)F)cc1`
no

Which result was noted for this compound in the test: `O=C(O)c1cc[c]([Hg][Cl])cc1`
yes

Which result was noted for this compound in the test: C[C@]12Cc3cn4c(nc3C=C1CCC1C2CC[C@@]2(C)[C@H]1CC[C@@]2(O)C#N)nc1ccccc14 (some centres undefined)
yes

Measured values drawn from PubChem BioAssay (NCATS) for this set.
